Test Target: Beta-1 adrenergic receptor (Rattus norvegicus)
Sequence (P18090 whole entry): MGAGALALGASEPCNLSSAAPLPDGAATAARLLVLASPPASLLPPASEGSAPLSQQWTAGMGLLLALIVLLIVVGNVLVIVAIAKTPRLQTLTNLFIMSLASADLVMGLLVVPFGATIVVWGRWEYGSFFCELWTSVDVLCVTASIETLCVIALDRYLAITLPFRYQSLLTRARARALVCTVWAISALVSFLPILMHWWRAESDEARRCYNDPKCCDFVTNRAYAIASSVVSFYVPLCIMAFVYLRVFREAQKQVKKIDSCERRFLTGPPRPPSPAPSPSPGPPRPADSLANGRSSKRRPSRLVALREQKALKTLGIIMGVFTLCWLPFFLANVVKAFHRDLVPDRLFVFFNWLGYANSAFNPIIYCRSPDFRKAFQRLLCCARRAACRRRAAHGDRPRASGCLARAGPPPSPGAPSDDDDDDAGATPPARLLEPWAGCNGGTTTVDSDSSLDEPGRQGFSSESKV
Assay Procedure: Displacement of [3H]CGP-12177 from beta1-adrenergic receptor in Sprague-Dawley rat cortical membrane after 2 hrs
Reported Metric: Ki (µM)
Report only the number, with the unit µM understood.

Molecule: COc1ccc(C[C@@H](C)NC[C@H](O)c2cc(O)cc(O)c2)c2ccccc12
Test Target: Beta-1 adrenergic receptor (Rattus norvegicus)
Units: µM
Ki: 161
//
Molecule: C[C@H](Cc1ccc2ccccc2c1)NC[C@H](O)c1cc(O)cc(O)c1
Test Target: Beta-1 adrenergic receptor (Rattus norvegicus)
Units: µM
Ki: 16.6
//
Molecule: COc1ccc(C[C@H](C)NC[C@H](O)c2cc(O)cc(O)c2)c2ccccc12 (racemic)
Test Target: Beta-1 adrenergic receptor (Rattus norvegicus)
Units: µM
Ki: 14.8
//
Molecule: C[C@@H](Cc1ccc2ccccc2c1)NC[C@H](O)c1cc(O)cc(O)c1
Test Target: Beta-1 adrenergic receptor (Rattus norvegicus)
Units: µM
Ki: 27.1
//
Molecule: CC[C@H](Cc1ccc(O)cc1)NC[C@H](O)c1cc(O)cc(O)c1
Test Target: Beta-1 adrenergic receptor (Rattus norvegicus)
Units: µM
Ki: 424

Kindly consider the entry below.
API: value(readout=Ki, system=Beta-1 adrenergic receptor (Rattus norvegicus)) for record CC[C@@H](Cc1ccc(O)cc1)NC[C@H](O)c1cc(O)cc(O)c1 (racemic)
117

---

Test Target: Beta-2 adrenergic receptor (Homo sapiens)
Sequence (P07550 whole entry): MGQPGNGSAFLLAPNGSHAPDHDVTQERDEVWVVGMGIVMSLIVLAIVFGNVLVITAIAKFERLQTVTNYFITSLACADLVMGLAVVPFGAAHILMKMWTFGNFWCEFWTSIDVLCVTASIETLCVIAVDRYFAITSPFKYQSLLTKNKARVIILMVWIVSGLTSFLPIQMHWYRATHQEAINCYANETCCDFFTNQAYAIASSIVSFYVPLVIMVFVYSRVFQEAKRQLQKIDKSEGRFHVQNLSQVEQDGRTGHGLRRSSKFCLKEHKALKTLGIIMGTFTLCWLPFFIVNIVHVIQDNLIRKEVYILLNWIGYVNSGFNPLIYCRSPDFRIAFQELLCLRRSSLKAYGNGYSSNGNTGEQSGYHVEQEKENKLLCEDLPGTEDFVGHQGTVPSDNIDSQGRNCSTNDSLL
Assay Procedure: Displacement of [3H]CGP-12177 from human beta2-adrenergic receptor expressed in HEK 293 cells
Type: cell-based, HEK293
We begin with a simple list: items and their reported pKi.
Quick note: pKi means taking -log10 of the concentration in moles per liter.

Molecule: CC[C@@H](Cc1ccc(O)cc1)NC[C@H](O)c1cc(O)cc(O)c1 (racemic)
Reported Metric: pKi
Data Value: 5.24

pKi for CC[C@H](Cc1ccc(O)cc1)NC[C@H](O)c1cc(O)cc(O)c1 ?
5.90

---

Test Target: Beta-2 adrenergic receptor (Homo sapiens)
Assay Procedure: Displacement of [125I]-CYP from human beta2-adrenergic receptor expressed in COS-7 cells by gamma counting
Assay type: cell-based
Reported Metric: pKi
Quick note: pKi means taking -log10 of the concentration in moles per liter.

pKi for OCc1cc(C(O)CNCCCCCCCCCCCc2ccccc2)ccc1O (stereo unspecified) ?
6.66
